Hey, just so you know, these numbers are from ChEMBL document CHEMBL2396579.

Each entry below carries its reported pIC50.
tested on: HepG2; assay: Photocytotoxicity against human HepG2 cells assessed as growth inhibition incubated for 4 hrs in dark prior to 20 mW cm'-2 laser irradiation for 20 mins followed by 24 hrs incubation in dark by CCK8 assay; type: functional, cell-based; conditions: HepG2, light or radiation study
pIC50: −log10 of the molar value.
Experimental Readout: pIC50

>>> reading("CCN(CC)c1ccc2cc(C(=O)/C=C/c3ccc(N(C)CCOCCOCCOCCOC)cc3)c(=O)oc2c1")
5.41
>>> reading("CCN(CC)c1ccc2cc(C(=O)/C=C/c3ccc(N(CCOCCOCCOCCOC)CCOCCOCCOCCOC)cc3)c(=O)oc2c1")
5.34
>>> reading("CCN(CC)c1ccc(/C=C/C(=O)c2cc3ccc(OCCOCCOCCOC)cc3oc2=O)cc1")
5.09

###

test: Octanol-water partition coefficient, log P of the compound; format: physicochemical
# logP >= 2 gives 1 (yes), anything below gives 0 (no)

>>> assigned_label("CCN(CC)c1ccc(/C=C/C(=O)c2cc3ccc(OCCOCCOCCOC)cc3oc2=O)cc1")
"1 (yes)"
>>> assigned_label("COCCOCCOCCOCCN(CCOCCOCCOCCOC)c1ccc(/C=C/C(=O)c2cc3ccc(OCCOCCOCCOC)cc3oc2=O)cc1")
"0 (no)"
>>> assigned_label("CCN(CC)c1ccc2cc(C(=O)/C=C/c3ccc(N(CCOCCOCCOCCOC)CCOCCOCCOCCOC)cc3)c(=O)oc2c1")
"1 (yes)"
>>> assigned_label("CCN(CC)c1ccc2cc(C(=O)/C=C/c3ccc(N(C)CCOCCOCCOCCOC)cc3)c(=O)oc2c1")
"1 (yes)"
>>> assigned_label("COCCOCCOCCOCCN(C)c1ccc(/C=C/C(=O)c2cc3ccc(OCCOCCOCCOC)cc3oc2=O)cc1")
"0 (no)"

###

test: Drug uptake in human HepG2 cell mitochondria at 10 uM after 4 hrs by confocal laser scanning microscopy; type: ADME; conditions: hepg2, 4 h
Experimental Readout: Drug uptake

>>> reading("CCN(CC)c1ccc(/C=C/C(=O)c2cc3ccc(OCCOCCOCCOC)cc3oc2=O)cc1")
"Active"
>>> reading("CCN(CC)c1ccc2cc(C(=O)/C=C/c3ccc(N(CCOCCOCCOCCOC)CCOCCOCCOCCOC)cc3)c(=O)oc2c1")
"Active"
>>> reading("CCN(CC)c1ccc2cc(C(=O)/C=C/c3ccc(N(C)CCOCCOCCOCCOC)cc3)c(=O)oc2c1")
"Active"
>>> reading("COCCOCCOCCOCCN(C)c1ccc(/C=C/C(=O)c2cc3ccc(OCCOCCOCCOC)cc3oc2=O)cc1")
"Not Active"
>>> reading("COCCOCCOCCOCCN(CCOCCOCCOCCOC)c1ccc(/C=C/C(=O)c2cc3ccc(OCCOCCOCCOC)cc3oc2=O)cc1")
"Not Active"
